pIC50: −log10 of the molar value. Structures can show the parent of a compound that is named as a salt.
Below are molecules with their pIC50 as measured on LSD1 (Homo sapiens (Human)).

# MOLECULE, MEASURED ON, pIC50
measured = [
    ("COc1ccc(-c2c(OCCCCCCC(=O)NO)cc(N3CC4CC3CC4N)nc2-c2ccc(C#N)c(F)c2)cc1O (stereo not drawn) [Example 15, hydrochloride]", "LSD1 (Homo sapiens (Human))", 8.84),
    ("N#Cc1ccc(-c2c(-c3ccc(OC(F)(F)F)c(O)c3)cnc(N3CCC(NCc4ccc(/C=C/C(=O)NO)cc4)CC3)c2C#N)cc1F", "LSD1 (Homo sapiens (Human))", 8.74),
    ("COc1ccc(-c2c(-c3ccc(C#N)c(F)c3)nc(N3CCC(NCCCCCCC(=O)NO)CC3)n3ccnc23)cc1O [Example 35, hydrochloride]", "LSD1 (Homo sapiens (Human))", 8.33),
    ("N#Cc1ccc(-c2c(-c3ccc4cn[nH]c4c3)cnc(N3CCC(NCc4ccc(/C=C/C(=O)NO)nc4)CC3)c2C#N)cc1F [Example 182, formate]", "LSD1 (Homo sapiens (Human))", 10.05),
    ("COc1cc(F)c(-c2cnc(N3CCC(NCc4ccc(/C=C/C(=O)NO)cc4)CC3)c(C)c2-c2ccc(C#N)nc2)cc1O [Example 262, formate]", "LSD1 (Homo sapiens (Human))", 8.15),
    ("COc1ccc(-c2cnc(N3CCC(NCc4ccc(/C=C/C(=O)NO)cc4)CC3)cc2-c2ccc(C#N)nc2)cc1O", "LSD1 (Homo sapiens (Human))", 7.60),
    ("COc1ccc(-c2ccc(C(=O)N3CC[C@H](NCc4ccc(/C=C/C(=O)NO)cc4)C3)cc2-c2ccc(C#N)c(F)c2)cc1O", "LSD1 (Homo sapiens (Human))", 8.07),
    ("CC(C)(O)COc1ccc(-c2cnc(N3CCC(NCc4ccc(/C=C/C(=O)NO)cn4)CC3)c(C#N)c2-c2ccc(C#N)c(F)c2)cc1O [Example 205, formate]", "LSD1 (Homo sapiens (Human))", 8.72),
    ("COc1ccc(-c2cnc(N3CCC(NCC4CC=C(/C=C/C(=O)NO)CC4)CC3)c(C#N)c2-c2ccc(C#N)c(F)c2)cc1O (stereo not drawn) [Example 155, formate]", "LSD1 (Homo sapiens (Human))", 9.24),
    ("COc1ccc(-c2cnc(N3CCC(NCc4ccc(/C=C(\\C)C(=O)NO)cc4)CC3)c(C#N)c2-c2ccc(C#N)c(F)c2)cc1O [Example 172, formate]", "LSD1 (Homo sapiens (Human))", 9.13),
    ("COc1ccc(-c2cnc(N3CCC(NCc4ccc(/C=C/C(=O)NO)nc4)CC3)c(CC#N)c2-c2ccc(C#N)c(F)c2)cc1O [Example 217, formate]", "LSD1 (Homo sapiens (Human))", 7.87),
    ("N#Cc1ccc(-c2c(-c3ccc(N4CCOCC4)c(O)c3)cnc(N3CCC(NCc4ccc(/C=C/C(=O)NO)cn4)CC3)c2C#N)cc1F [Example 246, formate]", "LSD1 (Homo sapiens (Human))", 9.03),
    ("COc1ccc(-c2cnc(N3CCC(NCc4ccc(/C=C(\\F)C(=O)NO)cc4)CC3)c(C#N)c2-c2ccc(C#N)c(F)c2)cc1O [Example 171, formate]", "LSD1 (Homo sapiens (Human))", 9.26),
    ("COc1c(O)cc(-c2cnc(N3CCC(NCc4ccc(/C=C/C(=O)NO)cc4)CC3)c(C#N)c2-c2ccc(C#N)c(F)c2)cc1F [Example 168, formate]", "LSD1 (Homo sapiens (Human))", 8.87),
    ("COc1ccc(-c2c(C#N)cc(N3CCC(NCc4cnc(/C=C/C(=O)NO)nc4)CC3)nc2-c2ccc(C#N)c(F)c2)cc1O [Example 234, formate]", "LSD1 (Homo sapiens (Human))", 8.97),
    ("N#Cc1ccc(-c2cnc(N3CCC(NCc4ccc(/C=C/C(=O)NO)cc4)CC3)c(C#N)c2-c2ccc(C#N)c(F)c2)cc1O [Example 113, formate]", "LSD1 (Homo sapiens (Human))", 8.70),
    ("N#Cc1ccc(-c2cc(OCCCCCCC(=O)NO)cc(N3CCC(N)CC3)n2)cc1F [Example 31, hydrochloride]", "LSD1 (Homo sapiens (Human))", 6.51),
    ("COc1ccc(-c2cnc(N3CCC(NCc4ccc(/C=C/C(=O)NO)cc4)CC3)c(C#N)c2-c2ccc(C#N)c(F)c2)cc1O [Example 37, hydrochloride]", "LSD1 (Homo sapiens (Human))", 8.71),
    ("CC(C)(O)COc1ccc(-c2cnc(N3CCC(NCc4ccc(/C=C/C(=O)NO)nc4)CC3)c(C#N)c2-c2ccc(C#N)c(F)c2)cc1O", "LSD1 (Homo sapiens (Human))", 9.27),
    ("COc1cc(F)c(-c2cnc(N3CCC(NCc4ccc(/C=C/C(=O)NO)cc4)CC3)c(C#N)c2-c2ccc(C#N)c(F)c2)cc1O", "LSD1 (Homo sapiens (Human))", 8.72),
    ("COc1ccc(-c2cnc(N3CCC(NCc4ccc(CCC(=O)NO)c(C#N)c4)CC3)c(C#N)c2-c2ccc(C#N)c(F)c2)cc1O", "LSD1 (Homo sapiens (Human))", 8.77),
    ("COc1ccc(-c2cnc(N3CCC(NCc4cnc(/C=C/C(=O)NO)cc4Cl)CC3)c(C#N)c2-c2ccc(C#N)c(F)c2)cc1O [Example 227, formate]", "LSD1 (Homo sapiens (Human))", 9.19),
    ("COc1ccc(-c2cnc(N3CCC(NCc4ccc(/C=C/C(=O)NO)cc4F)CC3)c(F)c2-c2ccc(C#N)nc2)cc1O [Example 269, hydrochloride]", "LSD1 (Homo sapiens (Human))", 6.71),
    ("CC(C)(O)COc1ccc(-c2cnc(N3CCC(NCc4ccc(/C=C/C(=O)NO)cc4)CC3)c(CC#N)c2-c2ccc(C#N)c(F)c2)cc1O [Example 218, formate]", "LSD1 (Homo sapiens (Human))", 7.99),
]

* * *

# MEASURED ON: HDAC1 (Homo sapiens (Human), UniProt Q13547)
# Sequence (Q13547 whole entry): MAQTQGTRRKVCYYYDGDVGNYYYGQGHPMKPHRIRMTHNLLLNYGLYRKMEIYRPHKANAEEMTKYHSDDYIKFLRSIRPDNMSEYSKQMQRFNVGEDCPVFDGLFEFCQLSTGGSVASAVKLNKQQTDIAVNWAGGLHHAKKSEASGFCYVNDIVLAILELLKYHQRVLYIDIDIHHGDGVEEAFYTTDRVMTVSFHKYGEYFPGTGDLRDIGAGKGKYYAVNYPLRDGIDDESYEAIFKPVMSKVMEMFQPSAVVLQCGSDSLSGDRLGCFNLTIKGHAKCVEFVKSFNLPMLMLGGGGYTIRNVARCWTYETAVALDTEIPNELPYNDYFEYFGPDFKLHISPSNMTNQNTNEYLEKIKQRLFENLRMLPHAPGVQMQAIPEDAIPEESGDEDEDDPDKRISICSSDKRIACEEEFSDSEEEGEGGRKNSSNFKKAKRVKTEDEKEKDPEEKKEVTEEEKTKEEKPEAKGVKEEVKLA
# METHOD: In vitro enzyme inhibition assay - HDAC (HDAC-Glo I/II), HDAC1
# Assay type: biochemical
# DETAILS: read-out: HDAC IC50 (nM) HDAC 1
Structures can show the parent of a compound that is named as a salt.

# MOLECULE, IC50 [nM]
records = [
    ("COc1ccc(-c2cnc(N3CCC(NCc4ccc(/C=C/C(=O)NO)cc4)CC3)c(C#N)c2-c2ccc(C#N)c(F)c2)cc1 [Example 52, hydrochloride]", 15.9),
    ("COc1ccc(-c2c(C)nc(N3CCC(NCc4ccc(/C=C/C(=O)NO)cc4)CC3)c(C#N)c2-c2ccc(C#N)c(F)c2)cc1O [Example 50, formate]", 118),
    ("COc1ccc(-c2cnc(N3CCC(NCc4ccc(/C=C/C(=O)NO)nc4)CC3)c(CC#N)c2-c2ccc(C#N)c(F)c2)cc1O [Example 217, formate]", 0.73),
    ("N#Cc1ccc(-c2c(-c3ccc(NC(=O)CCCCCCC(=O)NO)c(O)c3)cnc(N3CCC(N)CC3)c2C#N)cc1F [Example 58, hydrochloride]", 47.4),
    ("COc1ccc(-c2cnc(N3CCC(NCc4ccc(/C=C/C(=O)NO)cc4)CC3)c(CC#N)c2-c2ccc(C#N)c(F)c2)cc1O [Example 233, formate]", 0.43),
    ("N#Cc1ccc(-c2c(-c3ccc(CO)c(O)c3)cnc(N3CCC(NCc4ccc(/C=C/C(=O)NO)cc4)CC3)c2C#N)cc1F [Example 131, formate]", 0.22),
    ("CC(C)(O)COc1ccc(-c2cnc(N3CCC(NCc4ccc(/C=C/C(=O)NO)cn4)CC3)c(C#N)c2-c2ccc(C#N)c(F)c2)cc1O [Example 205, formate]", 3.08),
    ("CC(C)(O)COc1ccc(-c2cnc(N3CCC(NCc4ccc(/C=C/C(=O)NO)nc4)CC3)c(C#N)c2-c2ccc(C#N)c(F)c2)cc1O [Example 199]", 1.92),
    ("COc1ccc(-c2cnc(N3CCC(NC(C)(C)c4ccc(/C=C/C(=O)NO)cc4)CC3)c(C#N)c2-c2ccc(C#N)c(F)c2)cc1O [Example 179, formate]", 1.74),
    ("COc1ccc(-c2cnc(N3CCC(N(C)Cc4ccc(/C=C/C(=O)NO)cc4)CC3)c(C#N)c2-c2ccc(C#N)c(F)c2)cc1O [Example 42, formate]", 7.33),
    ("COc1ccc(-c2cnc(N3CCC(NCc4ncc(/C=C/C(=O)NO)cn4)CC3)c(C#N)c2-c2ccc(C#N)c(F)c2)cc1O [Example 135, formate]", 17.3),
    ("COc1ccc(-c2cnc(N3CCC(NCc4ccc(/C=C/C(=O)NO)cc4)CC3)c(OC)c2-c2ccc(C#N)c(F)c2)cc1O [Example 88]", 0.21),
]

Each recorded value in this set is attributed to patent US20250304549A1.
